Test: Determination of pharmacokinetic parameters following intravenous and oral administration (rats)
Assay type: in vivo, male Wistar rats
Settings: male, Wistar, rat, plasma, iv, intravenous administration in rats
Binary call on half-life with cut-off 4 h: strictly below means true (1), and equality or higher means false (0).

Worked cases, answers included:
{"Molecule": "Cc1nc2c(OCc3c(F)cccc3F)cccn2c1C(=O)NC(CN)c1ccc(F)cc1 (single isomer, unassigned; enantiomer b)", "Group Label": "false (0)"}
{"Molecule": "Cc1cc(OCc2c(F)cccc2F)c2nc(C)c(C(=O)NCC(C)(N)C3CC3)n2c1 (single isomer, unassigned; enantiomer b)", "Group Label": "true (1)"}
{"Molecule": "CCC(C)(N)CNC(=O)c1c(C)nc2c(OCc3c(F)cccc3F)cc(C(F)F)cn12 (single isomer, unassigned; enantiomer a)", "Group Label": "false (0)"}
{"Molecule": "Cc1cc(OCc2c(F)ccc(F)c2F)c2nc(C)c(C(=O)NCC(C)(N)CF)n2c1 (single isomer, unassigned; enantiomer a)", "Group Label": "true (1)"}

Inquiry: Does CCCC(C)(N)CNC(=O)c1c(C)nc2c(OCc3c(F)cccc3F)cc(C(F)F)cn12 (single isomer, unassigned; enantiomer b) have half-life strictly under 4 h?
Reply text: false (0)
